Recorded GFP response vs DMSO for the following compounds
# measurement.description: TOR pathway GLN3 branch reporter MEP2-GFP changes – S. cerevisiae, multiplex flow cytometry, primary screen (AID 1867);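 note: median GFP channel fluorescence of barcode-gated MEP2-GFP cells measured by flow cytometry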
# test.conditions: S. cerevisiae MEP2-GFP strain, 3 h, at 10 µM, active compounds read high, 100% means same as DMSO wells
Records with an inconclusive call do not appear.
Kindly provide the numeric value in % only, without the unit symbol.

The cases that follow already have their GFP response vs DMSO on record.
compound	assay.value
O=C(CCSc1ccccc1)N1CCCC1	109
CCCNCC(O)COc1ccccc1C(=O)CCc1ccccc1 (stereo not given)	110
NS(=O)(=O)c1ccc(CNC(=O)c2cc(-c3ccccc3)nc3ccccc23)cc1	109
C[C@]12CC[C@@H]3c4ccc(O)cc4CC[C@H]3[C@@H]1CC[C@@H]2OC(=O)CCC(=O)O	103
CCc1cc2c(=O)c(-c3nc(C)cs3)c(CCCC(=O)O)oc2cc1O	108
CCc1oc2ccccc2c1C(=O)c1cc(Br)c(O)c(Br)c1	117
CCC(=O)Oc1ccc(C(=O)Nc2ccc([N+](=O)[O-])cc2)cc1	148
OC(CCN1CCCC1)(c1ccccc1)C1CCCCC1 (stereo not given)	134
CC(=O)Nc1ccc(CN2CCN(C3CCCCC3)C(CCO)C2)cc1 (stereo not given)	104
Cn1c(SCC(=O)c2ccccc2)nnc1-c1ccncc1	103

q: Provide GFP response vs DMSO value for the following compound: O=Cc1ccccc1Oc1ccccc1
a: 125

q: Output GFP response vs DMSO of CCOC(=O)C1=C(C)N[C@@]2(O)c3ccccc3C(=O)[C@@]12O
a: 106

q: Output measured GFP response vs DMSO for this item: CC1CCCC(C)N1NC(=O)c1ccc(Cl)c(S(N)(=O)=O)c1 (stereo not given)
a: 126

q: Respond only with GFP response vs DMSO recorded for COc1ccc(OC(C)C(=O)Nc2ccc([N+](=O)[O-])cc2)cc1 (stereo not given)
a: 107

* * *

# Test system: anti-desmoglein-3 scFv antibody binding to human DSG3
# measurement.description: blockers of pathogenic pemphigus antibody–desmoglein-3 binding – biochemical, validation compound set, bead-based, flow cytometry, pilot screen (AID 588368);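 note: signal is the median channel fluorescence of bead-bound GFP antibody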
# test.conditions: Protein G beads, DSG3-Fc, scFv-GFP binding, at 10 µM, active compounds read low
// values below are reported binding (% of control)
The reply should contain only the number, in %.

mol.smiles	assay.value
NC(N)=N/N=C/c1ccc(OS(=O)(=O)c2ccccc2)cc1	107
COc1cc2c(cc1OC)-c1nnc(C)n1C(C)(C)C2	100
Cc1oncc1C(=O)Nc1ccc(C(F)(F)F)cc1	96
O=c1cc(-c2ccccc2)oc2cc(OCc3ccccc3)cc(O)c12	100
CC(C)(C)OC(=O)NCCC(=O)Oc1ccc2ccc(=O)oc2c1	101

q: Give binding (% of control) for the following molecule: CCSC(SCC)[C@H](O)[C@@H](O)[C@H](O)[C@H](O)CO
a: 104

q: Note down binding (% of control) recorded for C=CCn1c(N2CCCCCC2)nc2c1c(=O)n(C)c(=O)n2C
a: 95.9

* * *

# measurement.description: TOR pathway LAP4-GFP level changes – S. cerevisiae, multiplex flow cytometry, primary screen (AID 1873)
# test.conditions: S. cerevisiae LAP4-GFP expression, 3 h, at 10 µM, active compounds read high
Results filed as inconclusive are left out.
measurement.name: GFP response vs DMSO (%)
The figure you give is taken to be in %; do not add the unit.

compound	GFP response vs DMSO, %
CC(=O)c1c(C)c(C)c2n1CCn1c(C)ccc1-2	121
O=C1CC(c2ccc(O)cc2)Oc2cc(O)cc(O)c21 (stereo not given)	104
Nc1ccn([C@@H]2O[C@H](CO)[C@@H](O)[C@@H]2O)c(=O)n1	114
O=C(O)c1ccc(N2C(=O)/C(=C\c3ccccc3)N=C2c2ccccc2)cc1	110

q: Specify reported GFP response vs DMSO for the compound shown: COc1cc(C2Nc3ccccc3NC3=C2C(=O)CC(c2ccc(OC)c(OC)c2)C3)ccc1O (stereo not given)
a: 64.1

* * *

# system: ATP-binding cassette sub-family B member 6 (Homo sapiens) (UniProt Q9NP58)
# Sequence (Q9NP58 whole entry, looked up): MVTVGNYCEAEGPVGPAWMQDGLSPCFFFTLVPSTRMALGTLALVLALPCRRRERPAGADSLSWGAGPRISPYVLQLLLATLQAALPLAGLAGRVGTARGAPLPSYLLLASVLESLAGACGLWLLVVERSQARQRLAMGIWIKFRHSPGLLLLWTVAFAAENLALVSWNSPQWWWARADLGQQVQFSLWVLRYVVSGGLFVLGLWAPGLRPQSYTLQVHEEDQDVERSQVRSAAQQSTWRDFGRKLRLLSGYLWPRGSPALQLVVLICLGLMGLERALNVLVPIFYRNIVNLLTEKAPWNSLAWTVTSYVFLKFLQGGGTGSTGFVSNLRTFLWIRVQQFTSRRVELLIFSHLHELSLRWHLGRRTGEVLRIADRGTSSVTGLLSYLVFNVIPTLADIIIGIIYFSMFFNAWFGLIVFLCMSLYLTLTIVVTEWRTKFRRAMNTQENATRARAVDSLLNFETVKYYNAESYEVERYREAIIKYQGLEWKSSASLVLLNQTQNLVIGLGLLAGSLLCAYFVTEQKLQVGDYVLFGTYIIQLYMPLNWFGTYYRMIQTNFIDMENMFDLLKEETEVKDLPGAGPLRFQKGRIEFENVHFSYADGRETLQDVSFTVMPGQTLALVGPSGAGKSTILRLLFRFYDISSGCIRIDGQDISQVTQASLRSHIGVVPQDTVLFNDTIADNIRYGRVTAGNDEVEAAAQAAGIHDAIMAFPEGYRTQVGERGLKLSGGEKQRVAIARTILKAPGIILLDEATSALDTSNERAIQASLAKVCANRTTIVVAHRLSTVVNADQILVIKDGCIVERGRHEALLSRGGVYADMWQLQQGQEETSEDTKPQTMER
# measurement.description: blockers of ABCB6-driven porphyrin uptake – K562-ABCB6 cells, flow cytometry, validation set, pilot screen (AID 588550);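 note: 0% = DMSO wells and 100% = benzethonium chloride 70 µM positive control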
# test.conditions: K562-ABCB6 porphyrin accumulation, 1 h, at 10 µM, active compounds read high
measurement.name: inhibition (%)
Value expressed in %; do not type the unit.

compound	system	inhibition, %
CC(CN1c2ccccc2Sc2ccccc21)N(C)C (stereo unspecified)	ATP-binding cassette sub-family B member 6 (Homo sapiens) (UniProt Q9NP58)	10

q: Identify measured inhibition associated with CC(=O)OC(C)C[N+](C)(C)C (stereo unspecified)
a: 6

q: Let me know recorded inhibition for CC(=O)CSc1ncnc2c1cnn2-c1ccccc1 , thanks.
a: 7

q: Provide measured inhibition value, entry: Cc1ccc2c(c1)c(C)cc(=O)n2CCC(=O)O
a: 3

q: Assign inhibition to the following record: CC1(CC(=O)Nc2ccccc2)NC(=S)N(c2ccccc2)N1 (stereo unspecified)
a: 6

q: For the compound Cc1ccc(S(=O)(=O)NC(=O)Nc2cc(C)ccc2F)cc1 , give its reported inhibition.
a: -2

q: Assign inhibition to the following record: CCN(CC)C(=O)c1sc(NC(=O)c2c(OC)cccc2OC)c(C#N)c1C
a: 14

q: Fill in inhibition for record Oc1[nH]c2ccccc2c1C1=NCCCC1
a: 11

q: Entry Nc1nnc(CSCc2ccc(Cl)cc2Cl)s1 needs its inhibition filled in; supply it.
a: 0

q: // Input: S=C(NCc1ccccc1)NCc1cccc(CNC(=S)NCc2ccccc2)c1 . Output its inhibition only.
a: 2

q: Identify measured inhibition associated with CCC(C)NCCOc1ccccc1C (stereo unspecified)
a: 12

q: Input CC(=O)O[C@H]1C[C@@]2(C)[C@@H](C[C@@H](O)[C@H]3[C@@]4(C)CC[C@@H](O)[C@@H](C)C4CC[C@@]32C)/C1=C(\CCC=C(C)C)C(=O)O (stereo partly specified) , output reported inhibition.
a: 3

q: Query inhibition for CC1(c2ccccc2)CC(C)(C)N2C(=O)C(=O)c3cccc1c32 (stereo unspecified)
a: 5

q: Answer with reported inhibition of O=C(Nc1ccc(Cl)cn1)Nc1ccccc1Cl
a: -4

q: Check the records and state inhibition for N#C/C(C(N)=O)=c1/ccc2c(c1)N1C3=C(CCCC3)CC3CCCCC31N=2 (stereo unspecified)
a: -58

q: Supply recorded inhibition for C#CCN1C(=O)C(O)(c2c(C)[nH]c3ccccc23)c2ccccc21 (stereo unspecified) here.
a: 3

* * *

# measurement.description: AML differentiation inducers, ER-HoxA9 marrow cells – cell-based, GFP/MAC1 double positive, flow cytometry, validation set, primary screen (AID 588685);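 note: compound exposure lasts four days before antibody staining and flow analysis; 0% = DMSO wells and 100% = 5 µM fulvestrant positive control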
# test.conditions: active compounds read high, normalized: vehicle 0, fulvestrant 100
measurement.name: differentiation response (%)
Give a bare numeral; the unit % is implied.

molecule	display.unit	assay.value
CCn1c(C)cc2c(c1=O)C(c1ccccc1)C(C(=O)OC)=C(N)O2 (stereo not given)	%	4.86
Cc1cccc2c(C(=O)O)cc(-c3cccnc3)nc12	%	7.09

q: Return differentiation response (reported value) for this molecule: CCOC(=O)c1ccc(NC(=S)NCCc2ccccc2F)cc1
a: 9.04

q: Using known records, supply differentiation response for COc1ccc(CC(=O)Nc2cccc(C(=O)Nc3ccccc3C(=O)O)c2)cc1OC
a: 26.5

q: Retrieve differentiation response measured for C#C[C@]1(O)CC[C@H]2[C@@H]3CCc4cc(OC)ccc4[C@H]3CC[C@@]21C and print it.
a: -2.03

q: State its differentiation response: Cc1ccccc1N1C(N)=NC(N)=NC1(C)C
a: -19.2

q: Give the measured differentiation response for O=c1[nH]c(=O)n(C2CCCO2)cc1F (stereo not given)
a: 35.2

* * *

The entries below come with measured response values attached.
# system: Beta-2 adrenergic receptor (Homo sapiens)
# measurement.description: agonist-induced loss of surface beta2AR – cell-based, FAP fluorogen, flow cytometry, validation set, pilot screen (AID 504459);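 note: agonist-driven loss of surface beta2AR via internalization measured by FAP dye flow cytometry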
# test.conditions: Am2.2-beta2AR cells, at 10 µM, active compounds read high
The source made the active and inactive calls.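 How the source made its calls: active means percent response above 42, roughly 3 SD of non-fluorescent test compounds; inactive means the rest.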

The following compounds have reported results that may help.
mol.smiles	response
CCSC(=O)CCCCCCCCCCCO	-27.7% (inactive)
CCn1cc(C(=O)O)c(=O)c2ccc(C)nc21	3.04% (inactive)

Lab note: next compound to report on.
q: Return response (reported value) for this compound: O=C(CCCN1C(=O)/C(=C\c2cccs2)SC1=S)Nc1ccccn1
a: -9.49% (inactive)

* * *

Let's look at some molecules and their measured GFP response vs DMSO.
# measurement.description: TOR pathway LAP4-GFP level changes – S. cerevisiae, multiplex flow cytometry, primary screen (AID 1873)
# test.conditions: S. cerevisiae LAP4-GFP expression, 3 h, at 10 µM, active compounds read high
Results filed as inconclusive are left out.
Dear colleague, please return just the value in %, with no unit written.

Example cases with answers are listed next.
molecule	measurement.name	display.unit	assay.value
COC(=O)c1[nH]c2ccc(C)cc2c1NC(=O)CN1CCc2cc(OC)c(OC)cc2C1	GFP response vs DMSO	%	103
CSCC[C@H](NC(=O)NC1CCCC1)C(=O)O	GFP response vs DMSO	%	75.4

Continue with the molecule presented below.
q: Return GFP response vs DMSO (reported value) for this molecule: CC(C)COCC1CC2(CC(C)(c3csc(N)n3)OC2=O)C(=O)O1 (stereo not drawn)
a: 84.8
